test system: Saccharomyces cerevisiae BY4741 SeMeCo community; assay: z-score of subpopulation abundance vs DMSO median, subpopulation auxotrophic for UM; higher = larger share of this subpopulation than in DMSO controls; settings: 10 µM; 24 h; SM minimal medium; subpopulation (auxotrophy): UM
Structures can show the parent of a compound that is named as a salt.
# binning rule on z-score of subpopulation abundance: interval 1 = under -0.4, interval 2 = from -0.4 up to 0.4, interval 3 = 0.4 and over

Use these answered entries as a reference point.
[
  {
    "compound": "O=C1Nc2ccccc2C1=O",
    "class assignment": "interval 3"
  },
  {
    "compound": "Nc1ccc2cc3ccc(N)cc3nc2c1 [Proflavine]",
    "class assignment": "interval 1"
  },
  {
    "compound": "CS(=O)(=O)c1ccc([C@@H](O)[C@@H](CF)NC(=O)C(Cl)Cl)cc1",
    "class assignment": "interval 2"
  },
  {
    "compound": "Clc1ccc2c(N3CCN(CCCN4CCN(c5ccnc6cc(Cl)ccc56)CC4)CC3)ccnc2c1 [Piperaquine phosphate]",
    "class assignment": "interval 2"
  },
  {
    "compound": "COc1cc(Cc2cnc(N)nc2N)cc(OC)c1OC",
    "class assignment": "interval 2"
  },
  {
    "compound": "CCC[C@@H]1C[C@@H](C(=O)N[C@@H]([C@H]2O[C@H](SC)[C@H](OP(=O)(O)O)[C@@H](O)[C@H]2O)[C@H](C)Cl)N(C)C1 [Clindamycin Phosphate]",
    "class assignment": "interval 3"
  }
]

Quick check: band for C=C1CCC2C(C)(CO)C(O)CCC2(C)C1CC=C1C=COC1=O (stereo not given) [Dehydroandrographolide] interval 2

Nc1nc(N)nc(-c2cc(Cl)ccc2Cl)n1 ? interval 1

Item: C[C@H]1c2cccc(O)c2C(O)=C2C(=O)[C@]3(O)C(O)=C(C(N)=O)C(=O)[C@@H](N(C)C)[C@@H]3[C@@H](O)[C@@H]21 [Doxycycline monohydrate] interval 1

Request: CN1CCc2cc3c(cc2C(=O)Cc2ccc4c(c2C1)OCO4)OCO3 interval 2

// same read-out, input: CC1(C)S[C@@H]2[C@H](NC(=O)[C@H](NC(=O)N3CCN(S(C)(=O)=O)C3=O)c3ccccc3)C(=O)N2[C@H]1C(=O)O [Mezlocillin Sodium] interval 2

Please answer likewise for CO[C@H]1C[C@@H]2CC[C@@H](C)[C@@](O)(O2)C(=O)C(=O)N2CCCC[C@H]2C(=O)O[C@H]([C@H](C)C[C@@H]2CC[C@@H](OP(C)(C)=O)[C@H](OC)C2)CC(=O)[C@H](C)/C=C(\C)[C@@H](O)[C@@H](OC)C(=O)[C@H](C)C[C@H](C)/C=C/C=C/C=C/1C interval 3

Next compound: CCN(CC)C(=O)N1CCN(C)CC1 [Diethylcarbamazine citrate] interval 2

Try this compound too: COc1ccc2c3c1O[C@H]1C[C@@H](O)C=C[C@@]31CCN(C)C2 [Galanthamine HBr] interval 3

Another compound to check: CCCCOc1ccc(CC(=O)NO)cc1 interval 2

Let us now turn to C[C@@H](c1ncncc1F)[C@](O)(Cn1cncn1)c1ccc(F)cc1F interval 3

Lookup CCN(CC)CC#CCOC(=O)C(O)(c1ccccc1)C1CCCCC1 (stereo not given) [Oxybutynin] interval 1

Please give the result for C=C1c2cccc(O)c2C(O)=C2C(=O)[C@]3(O)C(O)=C(C(N)=O)C(=O)[C@@H](N(C)C)[C@@H]3[C@@H](O)[C@H]12 [Methacycline HCl] too. interval 1

Another compound to check: CN(C)CCc1c[nH]c2ccc(Cn3cncn3)cc12 [Rizatriptan Benzoate] interval 1

Okay, and CC[C@H](C)C(=O)O[C@H]1C[C@H](O)C=C2C=C[C@H](C)[C@H](CC[C@@H](O)C[C@@H](O)CC(=O)O)[C@H]21 [Pravastatin] ? interval 3

Okay, and Cc1ccc(Sc2ccccc2N2CCNCC2)c(C)c1 [Vortioxetine] ? interval 2

Next entry: CCCN[C@H]1CCc2nc(N)sc2C1 [Pramipexole dihydrochloride] interval 2

Now the compound NC(=O)N1c2ccccc2CC(=O)c2ccccc21 [Oxcarbazepine] interval 2

And for CC(C)N1CCN(c2ccc(OCC3COC(Cn4cncn4)(c4ccc(Cl)cc4Cl)O3)cc2)CC1 (stereo not given) ? interval 1

Taken from the supplement of paper PMC8975748.
